- Tested on: S. aureus USA600
- PROCEDURE TEXT: broth microdilution MIC assay, S. aureus USA 600
- Assay type: cell-based
- SETUP CONDITIONS: Staphylococcus aureus; Table 4; S. aureus USA600; read-out: S. aureus USA600 MIC
So I've got a bunch of molecules here, and I need their MIC values.

List reported MIC for each of these molecules:
1. C[C@@H](O)[C@H]1C(=O)N2C(C(=O)O)=C(SC3CN(C[C@H]4CC[C@@H](N)CC4)C3)[C@H](C)[C@H]12
2. C[C@@H](O)[C@H]1C(=O)N2C(C(=O)O)=C(S[C@@H]3CCN(C[C@H]4CCNC4)C3)[C@H](C)[C@H]12
3. C[C@@H](O)[C@H]1C(=O)N2C(C(=O)O)=C(SC3CN(C[C@H]4CC[C@H](N(C)C(=N)N)CC4)C3)[C@H](C)[C@H]12
4. C[C@@H](O)[C@H]1C(=O)N2C(C(=O)O)=C(S[C@@H]3CCN(C[C@H]4CNCCO4)C3)[C@H](C)[C@H]12
5. C[C@@H](O)[C@H]1C(=O)N2C(C(=O)O)=C(S[C@@H]3CCN(CC4CCNCC4(F)F)C3)[C@H](C)[C@H]12 (stereo partly shown)

Ans.
["< 1 µg/mL", "1 to 4 µg/mL", "< 1 µg/mL", "1 to 4 µg/mL", "1 to 4 µg/mL"]

List reported MIC for each of these molecules:
1. CNC1CCC(CN2CC(SC3=C(C(=O)O)N4C(=O)[C@H]([C@@H](C)O)[C@H]4[C@H]3C)C2)CC1 (stereo partly shown)
2. C[C@@H](O)[C@H]1C(=O)N2C(C(=O)O)=C(S[C@@H]3CCN(CC4CNCCS4)C3)[C@H](C)[C@H]12 (stereo partly shown)

Ans.
1 to 4 µg/mL
1 to 4 µg/mL
